Numbers sourced from patent US20230035859A1.

- Assay Target: HLA-A*02:01 (human)
Quantity: EpiScan MFI

- SLPGVFCGV (modifications not checked): 6.42
- VMAYITGGV (modifications not checked): 4.53
- YIDIGNYTV (modifications not checked): 4.42
- VLYQDVNCTEV (modifications not checked): 5.6
- VMVELVAEL (modifications not checked): 5.34
- AMDEFIERYKL (modifications not checked): 2.35
- TLATHGLAAV (modifications not checked): 4.04
- VMAYITGGVV (modifications not checked): 4.64
